src = ChEMBL document CHEMBL2311495

biological target: Adenosine receptor A2a (Homo sapiens, UniProt P29274); experiment: Displacement of [3H]ZM241385 from human adenosine A2a receptor expressed in CHO cells at 1 uM by scintillation counting; format: cell-based
Sequence (P29274 whole entry): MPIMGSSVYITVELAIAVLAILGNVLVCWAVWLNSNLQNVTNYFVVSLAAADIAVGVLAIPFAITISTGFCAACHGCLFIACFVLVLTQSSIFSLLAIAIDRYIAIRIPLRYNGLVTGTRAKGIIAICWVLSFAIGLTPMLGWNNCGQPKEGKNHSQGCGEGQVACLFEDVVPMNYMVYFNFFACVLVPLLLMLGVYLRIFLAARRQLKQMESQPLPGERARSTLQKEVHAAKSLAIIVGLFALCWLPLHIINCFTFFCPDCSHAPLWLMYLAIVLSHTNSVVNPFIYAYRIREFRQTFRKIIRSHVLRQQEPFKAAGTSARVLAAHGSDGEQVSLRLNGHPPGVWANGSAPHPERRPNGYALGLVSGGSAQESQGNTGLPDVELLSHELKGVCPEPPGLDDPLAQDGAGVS
observed property: inhibition (%)

INSERT INTO results (given_smiles, reported) VALUES
  ('COc1ccc(-c2cc(-c3ccccc3N)[nH]n2)cc1', 9);

P. Oc1nc2ccccc2c2cc(-c3ccc(Cl)cc3)nn12
Q. Oc1nc2ccccc2c2cc(-c3ccccc3F)nn12
Could you tell me which of P and Q has the lower inhibition reading? # respond with the chosen item's label
P

a. Nc1ccccc1-c1cc(-c2cccs2)n[nH]1
b. Nc1nc2ccccc2c2cc(-c3cccs3)nn12
c. Nc1ccccc1-c1cc(-c2ccco2)n[nH]1
Place the items in sequence of falling inhibition. I'd appreciate it if you listed the labels in the requested order.
b, c, a
(b: 20%, c: 6%, a: 1%)

====

molecular target: Adenosine receptor A2b (Homo sapiens); experiment: Antagonist activity at human adenosine A2b receptor transfected in CHO cells assessed as inhibition of NECA-induced cAMP accumulation by scintillation counting
Sequence (P29275 whole entry): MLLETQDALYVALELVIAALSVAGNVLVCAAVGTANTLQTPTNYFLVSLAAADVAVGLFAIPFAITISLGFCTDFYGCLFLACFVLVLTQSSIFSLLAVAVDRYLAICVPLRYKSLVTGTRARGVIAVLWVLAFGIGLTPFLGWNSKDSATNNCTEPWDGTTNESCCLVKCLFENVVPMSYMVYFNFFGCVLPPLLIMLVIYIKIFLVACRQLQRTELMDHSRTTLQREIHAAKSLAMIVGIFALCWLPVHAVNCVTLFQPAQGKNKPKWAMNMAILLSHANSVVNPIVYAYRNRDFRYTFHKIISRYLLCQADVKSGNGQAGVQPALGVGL
observed property: pIC50
Here pIC50 is given on a logarithmic scale as minus log10 of the concentration in mol/L.

Recorded pIC50 of Nc1nc2ccccc2c2cc(-c3ccco3)nn12 , please.
6.92

====

biological target: Adenosine receptor A2a (Homo sapiens, UniProt P29274); test: Displacement of [3H]ZM241385 from human adenosine A2a receptor expressed in CHO cells at 1 uM by scintillation counting; type: cell-based
observed property: inhibition (%)

Here are 6 molecules together with their reported answers.
INSERT INTO results (given_smiles, observed_property, result_unit, reported) VALUES
  ('Nc1ccccc1-c1cc(-c2ccccc2)n[nH]1', 'inhibition', '%', 1),
  ('CCOC(=O)c1nn2c(=O)[nH]c3ccccc3c2c1C(=O)OCC', 'inhibition', '%', 1),
  ('O=C(Nc1nc2ccccc2c2cc(-c3ccccc3)nn12)c1ccccc1', 'inhibition', '%', 1),
  ('Oc1nc2ccccc2c2cc(-c3ccco3)nn12', 'inhibition', '%', 1),
  ('Oc1nc2ccccc2c2cc(-c3ccccc3)nn12', 'inhibition', '%', 1),
  ('O=C(OCc1ccccc1)c1cc2c3ccccc3[nH]c(=O)n2n1', 'inhibition', '%', 4);

a. Oc1nc2ccccc2c2cc(-c3ccccn3)nn12
b. CCOC(=O)c1cc2c3ccccc3nc(O)n2n1
c. Cc1ccc(-c2cc3c4ccccc4nc(O)n3n2)cc1
d. Oc1nc2ccccc2c2cc(-c3cccs3)nn12
Place the items in sequence of falling inhibition. I'd appreciate it if you listed the labels in the requested order.
d, c, b, a
(d: 20%, c: 12%, b: 5%, a: 1%)

====

target: Adenosine receptor A1 (Homo sapiens) (UniProt P30542); assay: Displacement of [3H]DPCPX from human adenosine A1 receptor expressed in CHO cells at 1 uM by scintillation counting; format: cell-based
Sequence (P30542 whole entry): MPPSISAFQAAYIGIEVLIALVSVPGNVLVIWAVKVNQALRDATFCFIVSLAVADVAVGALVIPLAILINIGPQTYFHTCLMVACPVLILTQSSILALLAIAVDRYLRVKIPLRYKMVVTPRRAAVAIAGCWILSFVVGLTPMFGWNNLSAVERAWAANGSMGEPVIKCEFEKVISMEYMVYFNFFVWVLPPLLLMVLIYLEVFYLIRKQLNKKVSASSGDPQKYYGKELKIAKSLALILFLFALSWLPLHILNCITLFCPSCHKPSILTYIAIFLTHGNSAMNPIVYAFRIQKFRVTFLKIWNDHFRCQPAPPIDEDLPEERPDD
observed property: inhibition (%)

INSERT INTO assay_data (given_smiles, observed_property, reported) VALUES
  ('Oc1ccccc1-c1cc(-c2ccccc2)[nH]n1', 'inhibition', 13);

A. O=C(NCc1ccccc1)c1cc2c3ccccc3[nH]c(=O)n2n1
B. Oc1nc2ccccc2c2cc(-c3ccccc3)nn12
Could you tell me which of A and B has the lower inhibition reading? # respond with the chosen item's label
A
(A: 2%, B: 12%)

1. Nc1ccccc1-c1cc(-c2ccccc2)n[nH]1
2. O=C(Nc1nc2ccccc2c2cc(-c3ccccc3)nn12)c1ccccc1
Could you tell me which of 1 and 2 has the lower inhibition reading? # respond with the chosen item's label
2

P. Oc1nc2ccccc2c2cc(-c3ccccn3)nn12
Q. Oc1nc2ccccc2c2cc(-c3ccccc3F)nn12
R. Nc1nc2ccccc2c2cc(-c3cccs3)nn12
Place the items in sequence of falling inhibition. I'd appreciate it if you listed the labels in the requested order.
R, P, Q
(R: 44%, P: 4%, Q: 1%)

a. Nc1ccccc1-c1cc(-c2ccco2)n[nH]1
b. Oc1nc2ccccc2c2cc(-c3ccc(Cl)cc3)nn12
Kindly identify which of a and b has the larger recorded inhibition value. # respond with the chosen item's label
b

P. CCOC(=O)c1cc2c3ccccc3nc(O)n2n1
Q. Cc1ccc(-c2cc3c4ccccc4nc(O)n3n2)cc1
Could you tell me which of P and Q has the lower inhibition reading? # respond with the chosen item's label
Q

a. CCOC(=O)c1ccccc1-c1cc(-c2cccs2)n[nH]1
b. CC(C)OC(=O)c1cc2c3ccccc3nc(O)n2n1
Kindly identify which of a and b has the larger recorded inhibition value. # respond with the chosen item's label
a
(a: 3%, b: 1%)

A. COc1ccc(-c2cc3c4ccccc4[nH]c(=O)n3n2)cc1
B. CCOC(=O)c1nn2c(=O)[nH]c3ccccc3c2c1C(=O)OCC
Kindly identify which of A and B has the larger recorded inhibition value. # respond with the chosen item's label
B
(B: 12%, A: 4%)

A. Oc1nc2ccccc2c2cc(-c3ccco3)nn12
B. COC(=O)c1cc2c3ccccc3nc(O)n2n1
Kindly identify which of A and B has the larger recorded inhibition value. # respond with the chosen item's label
A
(A: 5%, B: 1%)
